# target_system: AAV9 viral particles (adeno-associated virus 9)
# protocol: SPR (Biacore), polypeptide amine-coupled to CM5, AAV9 analyte; response normalized to SEQ ID NO:80
# reported Normalized AAV9 binding capacity (%); entries follow
outcome_measure: Normalized AAV9 binding capacity (%)

binder="vh265 (SEQ ID NO:111) (VHH) VHH: QVQLQQSGGGSVQAGGSLRLSCTISGRTLSDYTMGWFRQRPGKGREFVAAISWSGAYTKYADSVKGRFTISRDNAKNTVYLQMNSLKPEDTAVYYCAAGPTGLLSKKATPADYDYWGQGTQVTVSS" observed_result=101%
binder="vh263 (SEQ ID NO:109) (VHH) VHH: QVQLQQSGGGSVQAGGSLRLSCTISGRTLSDYTMGWFRQRPGKAREFVAAISWSGAYTKYADSVKGRFTISRDNAKNTVYLQMNSLKPEDTAVYYCAAGPTGLLSKKATPADYDYWGQGTQVTVSS" observed_result=108%
binder="vh258 (SEQ ID NO:102) (VHH) VHH: QVQLQQSGGGSVQAGGSLRLSCTISGRTLSDYTMGWFRQIPGKEREFVAAISWSGAYTKYADSVKGRFTISRDNAKNTVYLQMNSLKPEDTAVYYCAAGPTGLLSKKATPADYDYWGQGTQVTVSS" observed_result=87%
binder="vh325 (SEQ ID NO:113) (VHH) VHH: QVQLQQSGGGSVQAGGSLRLSCTISGRTLSDYTMGWFRQRPGKEIEFVAAISWSGAYTKYADSVKGRFTISRDNAKNTVYLQMNSLKPEDTAVYYCAAGPTGLLSKKATPADYDYWGQGTQVTVSS" observed_result=97%
binder="vh118 (SEQ ID NO:80), Example 3 construct (VHH) VHH: QVQLQQSGGGSVQAGGSLRLSCTISGRTLSDYTMGWFRQRPGKEREFVAAISWSGAYTKYADSVKGRFTISRDNAKNTVYLQMNSLKPEDTAVYYCAAGPTGLLSKKATPADYDYWGQGTQVTVSS" observed_result=100%
binder="vh264 (SEQ ID NO:110) (VHH) VHH: QVQLQQSGGGSVQAGGSLRLSCTISGRTLSDYTMGWFRQRPGKDREFVAAISWSGAYTKYADSVKGRFTISRDNAKNTVYLQMNSLKPEDTAVYYCAAGPTGLLSKKATPADYDYWGQGTQVTVSS" observed_result=92%
binder="vh259 (SEQ ID NO:105) (VHH) VHH: QVQLQQSGGGSVQAGGSLRLSCTISGRTLSDYTMGWFRQRPGGEREFVAAISWSGAYTKYADSVKGRFTISRDNAKNTVYLQMNSLKPEDTAVYYCAAGPTGLLSKKATPADYDYWGQGTQVTVSS" observed_result=72%
